Target: T1, Oct6 DNA-binding domain (BD-Oct6) (Mus musculus (B6), UniProt P21952 317-416)
T1 sequence: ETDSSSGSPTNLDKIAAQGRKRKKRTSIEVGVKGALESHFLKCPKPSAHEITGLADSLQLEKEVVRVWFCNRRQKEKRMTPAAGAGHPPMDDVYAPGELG
Experiment: EMSA; 10% glycerol, 20 mM HEPES pH 7.8, 45 mM KCl, 10 mM NaCl, 1 mM EDTA, 1 mM DTT, 0.2 ug/uL BSA, 0.1% NP-40, 50 ng poly-dIdC; 20 ng each GST protein; room temperature 30 min (heterodimers 4 C); 6% PAGE 0.25x TBE
Settings: protein: recombinant; tags: GST (N-terminal, pGEX-6P-1); label: 32P-dCTP fill-in of the 5' (dG)5 overhangs of both strands (Methods; control probes are given with GGG)
READOUT KIND: binding result

26 (dsDNA) DNA 1: GGGGGGTGGAGGCTTTGTGTAATCAGTCTGTGTACCCCC DNA 2: GGGGGTACACAGACTGATTACACAAAGCCTCCACCCCCC = binds
13 (dsDNA) DNA 1: GGGGGTCTCCTGCTTTGTAGTCACAGAGTAGTCAAGAAGGGCTCCCCC DNA 2: GGGGGAGCCCTTCTTGACTACTCTGTGACTACAAAGCAGGAGACCCCC = no binding
8 (dsDNA) DNA 1: GGGGGGCTGTAACAGAATACCTGACAAAAGCAACTTCCCCC DNA 2: GGGGGAAGTTGCTTTTGTCAGGTATTCTGTTACAGCCCCCC = no binding
